molecular target: WT STING (Homo sapiens, UniProt Q86WV6, H232R); assay: Digitonin assay using 293T wtSTING-FL reporter cells; details: 293T wtSTING-FL cells; 30 minutes in Digitonin buffer, then 5 hours; ISRE firefly luciferase reporter; 8-point dose-response curve; read-out: Digitonin assay EC50 (μmol · l^−1) WT STING
Sequence (Q86WV6 whole entry H232R): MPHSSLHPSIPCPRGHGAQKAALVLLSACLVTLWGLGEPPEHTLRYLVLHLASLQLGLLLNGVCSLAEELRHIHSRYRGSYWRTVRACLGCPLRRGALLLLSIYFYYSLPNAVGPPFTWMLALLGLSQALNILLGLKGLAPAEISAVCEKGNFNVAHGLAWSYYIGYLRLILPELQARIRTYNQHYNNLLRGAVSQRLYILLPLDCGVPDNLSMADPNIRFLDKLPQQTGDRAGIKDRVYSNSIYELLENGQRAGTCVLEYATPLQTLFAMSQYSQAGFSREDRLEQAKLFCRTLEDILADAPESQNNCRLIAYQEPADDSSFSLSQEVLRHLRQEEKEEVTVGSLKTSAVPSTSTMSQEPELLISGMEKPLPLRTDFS
measurement_kind: EC50 (nM)

compound	value_measured
Nc1ncnc2c1ncn2[C@@H]1O[C@@H]2COCP(=O)(O)O[C@@H]3[C@H](O)[C@@H](COP(=O)(O)O[C@H]2[C@H]1O)O[C@H]3n1cnc2c(N)ncnc21 [Compound 32]	8000
Nc1nc2c(ncn2[C@@H]2O[C@@H]3OCP(=O)(O)O[C@@H]4[C@@H](OCP(=O)(O)O[C@@H]2[C@@H]3O)O[C@@H](n2cnc3c(N)ncnc32)[C@@H]4O)c(=O)[nH]1 [Compound 44]	330
Nc1nc2c(ncn2[C@@H]2O[C@@H]3OCP(=O)(O)O[C@H]4[C@@H](O)[C@H](n5cnc6c(N)ncnc65)O[C@@H]4COP(=O)(O)O[C@@H]2[C@@H]3O)c(=O)[nH]1 [Compound 43]	5
